Assay overview: logP by LC-MS on reversed-phase columns (C 18), method [b], acidic range pH 2.7
Assay type: physicochemical
Test parameters: pH 2.7, log p
Collected chromatographic logP values appear next to each entry.
Observed property: chromatographic logP

                                    compound  observed_measurement
 0  CCCCS(=O)(=O)c1cccc(Nc2ncc(Br)c(NC3CCC3)n2)c1                  3.24
 1  CC(C)C[S+]([O-])c1cccc(Nc2ncc(Cl)c(NC3CC3)n2)c1 (stereo not shown)                  2.11
 2   CCCSc1cccc(Nc2ncc(Cl)c(NCC(F)(F)F)n2)c1                  4.08
 3   Clc1cnc(Nc2cccc(COc3ccccc3)c2)nc1NC1CC1                  2.92
 4        COCc1cccc(Nc2ncc(Br)c(NC(C)C)n2)c1                  1.92
 5  CCC[S+]([O-])c1cccc(Nc2ncc(C(F)(F)F)c(NC3CC3C)n2)c1 (stereo not shown)                   2.9
 6  COCc1cccc(Nc2ncc(C(F)(F)F)c(NC3CCC3)n2)c1                   3.3
 7  CCSC(C)c1cccc(Nc2ncc(Cl)c(NC(C)C)n2)c1 (stereo not shown)                  2.91
 8  COC(C)(C)c1cccc(Nc2ncc(Cl)c(NC3CC3)n2)c1                  2.16
 9  CCCS(=O)(=O)c1cccc(Nc2ncc(Br)c(NC3CCC3)n2)c1                  2.81
10        CCC(CC)Nc1nc(Nc2cccc(COC)c2)ncc1Cl                   2.3
11      COCCOc1cccc(Nc2ncc(Br)c(NC3CC3)n2)c1                  1.95
12  CCC(C)[S+]([O-])C(C)c1cccc(Nc2ncc(C(F)(F)F)c(NC3CC3)n2)c1 (stereo not shown)                  2.85
13  CCC(C)Sc1cccc(Nc2ncc(C(F)(F)F)c(NC3CC3)n2)c1 (stereo not shown)                   4.9
14  CCS(=O)(=O)c1ccc(Nc2ncc(Cl)c(NC3CC3)n2)cc1                  2.04
15  CCCC(C)Nc1nc(Nc2cccc(COC)c2)ncc1Cl (stereo not shown)                  2.41
16    COCCOc1ccc(Nc2ncc(Cl)c(NC3CC3)n2)cc1Cl                  2.12
17  CCCC[S+]([O-])c1cccc(Nc2ncc(C(F)(F)F)c(NC3CCC3)n2)c1 (stereo not shown)                   3.4
18          CCN(C)c1nc(Nc2cccc(COC)c2)ncc1Cl                  2.14

* * *

Assay overview: logP by LC-MS on reversed-phase columns (C 18), method [c], neutral range pH 7.8
Assay type: physicochemical
Test parameters: pH 7.8
Collected log p values appear next to each entry.
Observed property: log p

>>> print(df.to_string())
                                    compound  observed_measurement
 0  COCCOC(c1cccc(Nc2ncc(Br)c(NC3CC3)n2)c1)C(F)(F)F (stereo not drawn)              3.76[c];
 1  Clc1cnc(Nc2cccc(COc3ccc4c(c3)OCO4)c2)nc1NC1CC1               3.87[c]
 2      COCc1cccc(Nc2ncc(Cl)c(N3CCOCC3)n2)c1              2.87[c];
 3  COCC(C)Oc1ccc(Nc2ncc(C(F)(F)F)c(NC3CC3)n2)cc1Cl (stereo not drawn)              3.99[c];
 4  COCCOC(c1cccc(Nc2ncc(C(F)(F)F)c(NC3CC3)n2)c1)C(F)(F)F (stereo not drawn)               3.9[c];
 5      COCc1cccc(Nc2ncc(Cl)c(N3CCCCC3)n2)c1               4.2[c];
 6  CCCC(C)[S+]([O-])C(C)c1cccc(Nc2ncc(C(F)(F)F)c(NC3CC3)n2)c1 (stereo not drawn)              3.85[c];
 7  COC(C)c1cccc(Nc2ncc(Cl)c(NC(C)C3(Cl)CC3)n2)c1 (stereo not drawn)              4.65[c];
 8  CCOC(CSc1cccc(Nc2ncc(C(F)(F)F)c(NC3CC3)n2)c1)OCC               4.55[c]
 9  CCCC(C)SC(C)c1cccc(Nc2ncc(C(F)(F)F)c(NC3CC3)n2)c1 (stereo not drawn)               5.8[c];
10       COCc1cccc(Nc2ncc(Cl)c(N3CCCC3)n2)c1              3.83[c];
11  COCC(C)Oc1ccc(Nc2ncc(C(F)(F)F)c(NC3CC3)n2)cc1 (stereo not drawn)              3.45[c];
12  COCCOc1ccc(Nc2ncc(C(F)(F)F)c(NC3CC3)n2)cc1F              3.27[c];
13  CCCC(C)S(=O)(=O)C(C)c1cccc(Nc2ncc(Cl)c(NC3CC3)n2)c1 (stereo not drawn)              3.56[c];
14  CCCC[S+]([O-])c1cccc(Nc2ncc(Br)c(NC3CCC3)n2)c1 (stereo not drawn)               3.5[c];
15  CCCC(C)SC(C)c1cccc(Nc2ncc(Cl)c(NC3CC3)n2)c1 (stereo not drawn)              5.55[c];
16  CCS(=O)(=O)C(C)c1cccc(Nc2ncc(Br)c(NC3CC3)n2)c1 (stereo not drawn)               2.7[c];
17  COC(COCc1cccc(Nc2ncc(C(F)(F)F)c(NC3CC3)n2)c1)OC               3.37[c]
18  COCCOC(c1cccc(Nc2ncc(Cl)c(NC3CC3)n2)c1)C(F)(F)F (stereo not drawn)              3.61[c];
19  CCOCCOCCSc1cccc(Nc2ncc(Cl)c(NC3CC3)n2)c1              3.63[c];
20  COCC(C)Oc1ccc(Nc2ncc(C(F)(F)F)c(NC3CC3)n2)cc1C(F)(F)F (stereo not drawn)              4.28[c];

* * *

Assay overview: logP by LC-MS on reversed-phase columns (C 18), method [c], neutral range pH 7.8
Type: physicochemical
Test parameters: pH 7.8
Each entry falls into one class according to its chromatographic logP; the ranges are A (below 3), B (3 to below 4), C (4 or more)

>>> print(df.to_string())
                                    molecule  class_name
 0          COCc1cccc(Nc2ncc(Cl)c(NCCF)n2)c1           A
 1  CCSc1cccc(Nc2ncc(C(F)(F)F)c(NC3CC(C)C3)n2)c1 (stereo not shown)           C
 2  CCC(C)S(=O)(=O)C(C)c1cccc(Nc2ncc(C(F)(F)F)c(NC3CC3)n2)c1 (stereo not shown)           B
 3  COCc1cccc(Nc2ncc(Cl)c(NC3CC3C)n2)c1 (stereo not shown)           B
 4              CNc1nc(Nc2cccc(COC)c2)ncc1Cl           A
 5  CCCCS(=O)(=O)c1cccc(Nc2ncc(C(F)(F)F)c(NC3CC3)n2)c1           B
 6     CCCCSc1cccc(Nc2ncc(Br)c(NC3CCC3)n2)c1           C
 7  CCCC[S+]([O-])c1cccc(Nc2ncc(Br)c(NC3CC3)n2)c1 (stereo not shown)           A
 8     COCc1cccc(Nc2ncc(Cl)c(N(C)C3CC3)n2)c1           B
 9  CCCCS(=O)(=O)c1cccc(Nc2ncc(Cl)c(NC3CCC3)n2)c1           B
10     CCOCCOc1cccc(Nc2ncc(Cl)c(NC3CC3)n2)c1           B
11  CCCC[S+]([O-])c1cccc(Nc2ncc(Cl)c(NC3CC3)n2)c1 (stereo not shown)           A
12  CCCC[S+]([O-])c1cccc(Nc2ncc(C(F)(F)F)c(NC3CCC3)n2)c1 (stereo not shown)           B
13  COC(C)(C)Cc1cccc(Nc2ncc(Cl)c(NC3CC3)n2)c1           B
14  CCCC[S+]([O-])c1cccc(Nc2ncc(Cl)c(NC3CCC3)n2)c1 (stereo not shown)           B
15    CCOCCCSc1cccc(Nc2ncc(Cl)c(NC3CC3)n2)c1           C

* * *

Assay overview: logP by LC-MS on reversed-phase columns (C 18), method [c], neutral range pH 7.8
Format: physicochemical
Test parameters: pH 7.8
Observed property: chromatographic logP

>>> df
                                    compound  observed_measurement
 0     CCCCSc1cccc(Nc2ncc(Cl)c(NC3CCC3)n2)c1                  5.13
 1  CCSc1cccc(Nc2ncc(C(F)(F)F)c(NC3CCC3C)n2)c1 (stereo not shown)                  5.27
 2         COCc1cccc(Nc2ncc(Cl)c(NCC#N)n2)c1                  2.09
 3  CCSC(C)c1cccc(Nc2ncc(Cl)c(NC3CCC3C)n2)c1 (stereo not shown)                   5.3
 4  CCCCS(=O)(=O)c1cccc(Nc2ncc(C(F)(F)F)c(NC3CCC3)n2)c1                  4.01
 5  CC(C)C[S+]([O-])c1cccc(Nc2ncc(Cl)c(NC3CC3)n2)c1 (stereo not shown)                  2.81
 6  CCOC(C)c1cccc(Nc2ncc(C(F)(F)F)c(NC3CC3)n2)c1 (stereo not shown)                  4.12
 7  CCCS(=O)(=O)c1ccc(Nc2ncc(Cl)c(NC3CC3)n2)cc1                  2.76
 8  CCCSc1cccc(Nc2ncc(C(F)(F)F)c(NC3CC3C)n2)c1 (stereo not shown)                  5.23
 9  CCOCCOc1cc(Nc2ncc(C(F)(F)F)c(NC3CC3)n2)ccc1C                  4.15
10  CCCCSc1cccc(Nc2ncc(C(F)(F)F)c(NC3CCC3)n2)c1                  5.78
11      CCSCc1cccc(Nc2ncc(Cl)c(NC3CCC3)n2)c1                  4.44
12  CCC[S+]([O-])c1cccc(Nc2ncc(Cl)c(NC3CC3)n2)c1 (stereo not shown)                  2.47
13  CC[S+]([O-])c1cccc(Nc2ncc(C(F)(F)F)c(NC3CC(C)C3)n2)c1 (stereo not shown)                  3.32
14     CCOCCSc1cccc(Nc2ncc(Cl)c(NC3CC3)n2)c1                  3.76
15  COCCOC(C)c1cccc(Nc2ncc(Cl)c(NC3CC3)n2)c1 (stereo not shown)                  3.26
16  CCC(C)[S+]([O-])c1cccc(Nc2ncc(Cl)c(NC3CC3)n2)c1 (stereo not shown)                  2.74
17  CCSC(CC)c1cccc(Nc2ncc(Cl)c(NC3CC3)n2)c1 (stereo not shown)                  4.69
18  CC(C)CS(=O)(=O)c1cccc(Nc2ncc(Cl)c(NC3CC3)n2)c1                  3.23
